target: Aβ42 (Homo sapiens, UniProt P05067); experiment: Th-T (thioflavin-T) assay of Aβ42 aggregation; assay type: biochemical; conditions: reading M111; compound at 10 (head suffix _10)
Sequence (P05067 672-713): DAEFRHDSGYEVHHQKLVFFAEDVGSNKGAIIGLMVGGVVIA
Overview of recorded Th-T fluorescence, mean of three wells (Fig. 7a) for various compounds
No unit in the answer, please; the number alone is enough.

Guide cases for Th-T fluorescence, mean of three wells (Fig. 7a), answers given:
Aβ42 (Homo sapiens, UniProt P05067) data for C=C1CCC2C(C)(CCC=C(C)C)C(O)CCC2(C)C1Cc1c(OC)oc(CO)c(C(=O)OC)c1=O (centres unmarked) ; its Th-T fluorescence, mean of three wells (Fig. 7a): 1.553

Field Th-T fluorescence, mean of three wells (Fig. 7a) (Aβ42 (Homo sapiens, UniProt P05067)), entry C=C1CCC2C(C)(CCC=C(C)C)C(O)CCC2(C)C1Cc1c(OC)oc(C)c(C(=O)OC)c1=O (centres unmarked) : 2.887

For "C=C1CC[C@@H]2[C@](C)(CC[C@H]3O[C@H](C=C(C)C)C[C@@]23C)[C@@H]1Cc1c(OC)oc(CO)c(C(=O)OC)c1=O" on Aβ42 (Homo sapiens, UniProt P05067), measured Th-T fluorescence, mean of three wells (Fig. 7a) was 1.67

Noted Th-T fluorescence, mean of three wells (Fig. 7a) for C=C1CCC2C(C)(CCC=C(C)C)C(O)CCC2(C)C1Cc1c(OC)oc(CO)c(C)c1=O (centres unmarked) , tested on Aβ42 (Homo sapiens, UniProt P05067): 2.678

# ---- query compound ----
Recorded Th-T fluorescence, mean of three wells (Fig. 7a) for "C=C1CC[C@@H]2[C@](C)(CC[C@H]3O[C@H](C=C(C)C)C[C@@]23C)[C@@H]1Cc1c(OC)oc(CO)c(C)c1=O" on Aβ42 (Homo sapiens, UniProt P05067) was 3.255

###

biological target: Aβ42 (Homo sapiens, UniProt P05067); assay: Th-T (thioflavin-T) assay of Aβ42 aggregation; assay type: biochemical; conditions: reading M126; compound at 10 (head suffix _10)
Would you please tag the item true (1) when its Th-T fluorescence, mean of three wells (Fig. 7a) is 3 or above, and false (0) when it is below?

Examples from the recorded data:
Quick check, Th-T fluorescence, mean of three wells (Fig. 7a) >= 3? "C=C1CC[C@@H]2[C@](C)(CC[C@H]3O[C@H](C=C(C)C)C[C@@]23C)[C@@H]1Cc1c(OC)oc(CO)c(C(=O)OC)c1=O"
false (0)

For this compound, is measured Th-T fluorescence, mean of three wells (Fig. 7a) 3 or higher? C=C1CCC2C(C)(CCC=C(C)C)C(O)CCC2(C)C1Cc1c(OC)oc(CO)c(C)c1=O (centres unmarked)
false (0)

# bool: Th-T fluorescence, mean of three wells (Fig. 7a) of C=C1CCC2C(C)(CCC=C(C)C)C(O)CCC2(C)C1Cc1c(OC)oc(CO)c(C(=O)OC)c1=O (centres unmarked) >= 3
false (0)

Continuing:
Hi, just wondering whether "C=C1CC[C@@H]2[C@](C)(CC[C@H]3O[C@H](C=C(C)C)C[C@@]23C)[C@@H]1Cc1c(OC)oc(CO)c(C)c1=O" shows Th-T fluorescence, mean of three wells (Fig. 7a) of 3 or higher.
true (1)
